assay_comment: yeast display, Sf9 membrane polyspecificity reagent, FACS + sequencing; frameworks hold sequencing errors
reported_property: polyreactivity (PSR sort gate)

Use these answered entries as a reference point.
QVQLVKSGGGLVQAGGSLRLSCAASGSIFGYNTKGWYRQAPGKERELVATITYRGGSTYYADSVKGRFTISRDNAKNTVYLQMNRLKPEDTAVYYCARRVTRYPDTTWVSAGDYWGQGTQVTVSS    high polyreactivity
QVQLVESGGGLVQAGGSLRLSCAASGSIFPGYTMGWYRQAPGKERELVAAISWSDGSTYYADSVKGRFTISRDNAKNTVYLQMNSLKPDDTAVYYCNRDYRGPYYYWGQGTQVTVSS    high polyreactivity
QVQLVESGGVLVQAGGSLRLSCAASGNAMGWYRQAPGKERELVAAITRRGGSTYYADSVKGRFTISRDNAKNTVYLQINSLIPEDTAVYYCAADNPSYNLWYGYWGQGTQVTVSS    low polyreactivity
QVQHVESGGGLGQARRSLRLSCAASGTIINANAMGWDRQAPGKERELVASISGGAGSTYYADSVKGRFTISRDNAKNTVYLQMNSLKPEDTAVYYCAADRPYRYDYWGQGTQVTVSS    low polyreactivity

The record that follows has no polyreactivity (PSR sort gate) shown yet.
Exercise: Please give the measured polyreactivity (PSR sort gate) for this sequence: "QVQLVESGGGLVQAGGSLRLSCAASGSIFAYYAMGWYRQAPGKERELVADITSSGGITYYADSVKGRFTISRDNAKNTVYLQMNSLKPEDTAVYYCNADSWAIGGGSYPYDYWGQGTQVTVSS"
Key: low polyreactivity

* * *

assay_comment: yeast display, Sf9 membrane polyspecificity reagent, FACS + sequencing; frameworks hold sequencing errors
reported_property: polyreactivity (PSR sort gate)

QVQLVESGGGLVQAGGSLRLSCAASGRIIYWYAMGWYRQAPGKERELVAAIDWSAASTYYADSVKGRFTISRDNAKNTVYLQMNSLKPEDTAVYYCNRRGRGGESYRTTPGALGYWGQGTQVTVSS    low polyreactivity
QVQLVESGGGLVQAGGSLRLSCAASGFIFSSYAMGWYRQAPGKERELVASIRRRGGSTYYADSVKGRFTISRDNAKNTVYLQMNSLKPEDTAVYYCAASRVSYGTRFDYWGQGTQVTVSS    high polyreactivity
QVQLVDSGGGLLQAGGSLRLSFAASGRTLNHYVMGWYRQAPGKERELVAAISSGGSTYYADSVKGRFTISRDNAKNTVYLQMNSLKPEDTAVYYCNAGVVGDYPYWGLMDYWGQGTKVTVSS    high polyreactivity
QVQLVESGGGLVQAGGSLRLSCAASGSTFWSYAMGWYRQAPGKERELVAVITWSGGSTNYADSVKGRFTISRDNAKNTVYLQMNSLKPEDTAVYYCNAPYYFWSYIYDYLGQGTQVTVSS    low polyreactivity
QVQLVESGGGLVQAGGSLRLSCAASGLTFDRYGMGWYRQAPGKERELVAAIDGSGTSTYYADSVKGRFTISRDNAKNTVYLQMNSLKPEDTAVYYCNAYWTYEFPSYDYWGQGTQVTVSS    low polyreactivity
QVQLVESGGVLVQAGGSLRLSCAASGRIIDLNAMGWYREAPGKQRDFVAGITDGGSTYYADSVKGRFTISRDNAKNTVYLQMNSLKPEDTAVDYCAADVYDYLSEFQAFVEEAGYYWGQGTQVTVSS    low polyreactivity

Each sequence below has a recorded value; state its polyreactivity (PSR sort gate).
1. QVQLVESGGGLVQAGGSLRISCAASGRICWNYALGWYRQAPGKEMELVASISYRGGSTYYADSVKGRVTISRDYAKNTVYLQMNSLKPEDTAVYYCAARSRQARRTDYGYWGQGTQVTVSS
2. QVQLVESGGGLVQAGGSLRLSCAASGLIFSSYVMGWYRQAPGKERELVAAISSKGGSTYYADSVKGRFTISRDNAKNTVYLQMNSLKPEDTAVYYCAARVYYPVRYGYWGQGTQVTVSS

Key:
high polyreactivity
high polyreactivity

// batch mode: one polyreactivity (PSR sort gate) value per listed entry
1. QIQLVESGGGLDQAGGSLRISCAASAYTYVDYIGCYIPAPGKERELVADIDNSGGGTYYADSVTGRFTISRDNAKNTVYFLMNSLKAEDTAVYYCAAEFPYDDYYSNRDYDYWGQGTQVTVSS
2. QVQLVESGGGLVQAGCSLRLSCSASGSTFVAYAMGWYRQAPGTERELVAANTTGGSTNYADSVKGRFTISRDNAKNTVYLQMNSLKPEDTAVYYCATDSSTTWLRRATSKGPGEYWGQGTQVTVSS
3. QVQLVDSGGGLVQAGGSLLLICAASGSTIPRNAMGWYRQAPGKERELVAAITSGGSTNYADSVKGRFTISRDNAKNTVYLQMNSLKPEDTAVYYCAADEQVNTQYVVWGDYWGHGTQVTVSS

Key:
["low polyreactivity", "low polyreactivity", "low polyreactivity"]

* * *

assay_comment: yeast display, Sf9 membrane polyspecificity reagent, FACS + sequencing; frameworks hold sequencing errors
reported_property: polyreactivity (PSR sort gate)

Field: example entries. Status: answers known.
QVQLVESGGGLVQAGGSLRLSCAPSGGTFALYAMGWYRQAPGKERELVASISFNGGSTYYADSVKGRFTISRDNAKNTVYLQMNSLKPEDTAVYYCNTGYQWGVYESQTAVEDYWGQGTQVTVSS    low polyreactivity
QVQLVESAGGIVQAGGSLRLSCAASGFTFTGYAMGWYRQAPGKEREMVAAINARGTSTYYADSVKGRFTISRDNAKNTVYLQMNSLKPEDTAVYYCNREGRSVSGYYYYWGQGTQVTVSS    high polyreactivity
QVQLVESGGGLVQAGGSLRLSCAASGLTFRRYAMGWYRPAPGKEREFVAAITHNGGRTYYADSVKGRFTISRDNAKNTVYLQMNSLKPEDTAVYYCNAGGQRVNYDYWGQGTQVTVSS    high polyreactivity
QVQLVESGGGLVQAGGSLRLSCAASGIIFLHYAMGWYRQAPGKEREFVAAISWSGGSTHYADSVKGRFTISRDNAKNTVYLQMNSLKPEDTAVYYCAAYTFYSYDYWGQGTQVTVSS    high polyreactivity
QVQLVESGGGLVQAGGSLRLSCAASGYTFGYNAMGWYRQAPGKERELVANITWRGGSTNYADSVKGRFTISRDNAKNTVYLQMNSLKPEDTAVYYCAADRPWYYGRYYYWGQGTQVTVSS    high polyreactivity
QVQLVESGGGLVQAGCSLRLSCAASGSTFGENAMGWYRQAPGKERELVAVITSDTSTYYADSVKGRFTISRDNAKNTVYLQMNSLKPEDTAVYYCAADWGGLWFWYEYWGQGTQVTVSS    low polyreactivity
QVQLVESGGGIVQAGGSLRLSCAASGRNFGPYTMGWYRQAPGKERELVATISYSGSTTYYSDSVKGRFTISRDNAKNTVYLQMNSLKPEDTAVYYCNAQYYVFITFDYWGQGTKVTVSS    high polyreactivity
QVQLVESGGGLVQAGGSLRLSCAASGSTIYVKAMGWYRQAPGKEREFVAAITWNSGSTYYADSVKGRFTISRDNAKKTVYLQINSLKPEDTAVYYCAAVLSVLVYGYVYWGQGTQVTVSS    low polyreactivity

The following sequences each have a reported value; give each one's polyreactivity (PSR sort gate).
1. QVQLVESGGGLVQAGGSLRLSCAASGLIFGKNAMGWYRQAPGKERELVAAISSGDSTYADSVKGRFTISRDNAKNTVYLQMNSLKPEDTAVYYCNAEVLRESYDRHPTTDYYWGQGTQVTVSS
2. QVQLVESGGGLVQAGGSLRLSCAASGSTFFFNAMGWYRQAPGKERELVAAITGRSGSTYYADSVKGRFTISRDNAKNTVYIQMNSLKPEDTAVYYCAADYVFVATPLRYDYWGQGTQVTVSS

Key:
low polyreactivity
low polyreactivity

For every record below, what is its polyreactivity (PSR sort gate)?
1. QVQLVESGGVLVQAGGSIRLSCAASGRIIYKNAMGWYRQAPGKERELVAAITSSGGSTYYADSVKGRFTISRDNAKITVYFQMNSLKPEDTAVYYCAAYAYGRFGKLNYWGQGTQVTVSS
2. QVQLVESGGCLVQAGGSLRLSCSASGSTITYYAMGWYRQAPGKERELVAAISGRGGRTDYADSVKGRFTISRDNAKNTVYLQMNSLKPEATAVYYCARAGRVQPGSEDDYWGQGTQVTVSS
3. QVQLVESGGGLDQAGGSLRLSCAASGSIIYWYAKGWYRQAPGKERELVADISRGGITNYADSVKGRFTISRDNEKNTVYLQMNSLKPEDTAFYYCAKTHYGVQRLDSWGQGTQVTVSS
4. QVQLVESGGGLVQAGGSLRLSCAASGFTFKFNAMGWYRQAPGKERELVAAISYSGGSTYYADSVKGRFTISRDNAKNTVYLQMNSLKPEDTAVYYCAARAYWYGASYYYWGQGPQVTVSS
5. QVQVVESGGGLVQAGGSLRLSCAASGFTSTRYAMGWYRQAPGKERELVAAISYGGGDTYYADSVKGRFTISRDNAKNSVYLQMNSMKPEDTAVYYCNARGRYRKSERRAFDYWGQGTQVTVSS
6. QVQLVESGGGLVQAGGSLRLSCAASGYTFDANAMGWYRQAPGKERELVAAIRSGGGLTYYADSVKGRFTISRDNAKNTVYLQMNSLKPEDTAVYYCAAVTRRDSFEYWGQGTQVTVSS
7. QVQLVESGGGLVQAGGSLRLSCAASGITFGLYAMGWYRQAPGKEREFVAAISRRGGSTSYADSVKGRFTISRDNAKNTVYLQMNSLKPEDTAVYYCDTSYRRTVGGYTYYWGQGTQVTVSS
8. QVQLVESGGGLVQAGGSLRVSCAPSGRTFRYNTMGWYRPAPGKERELVARITWSGGSTYYADSVKGRFTISRDNAKNTVYLQMNSLKPEDTAVSYCAAGSGWRFDYWGQGTQVTVSS

Key:
1: low polyreactivity; 2: high polyreactivity; 3: low polyreactivity; 4: high polyreactivity; 5: high polyreactivity; 6: low polyreactivity; 7: high polyreactivity; 8: low polyreactivity
